test: Microsomal stability, mouse liver microsomes; type: in vitro ADME; conditions: 10 μM compound
propertyName: MLM % remaining after 60 min (%)
Give your result in % as a bare value.

Reference set (4 entries):
CC(C)(C)OC(=O)c1ncn2c1[C@@H]1CCCN1C(=O)c1cc(O)ccc1-2 = 46.6
CCOC(=O)c1ncn2c1[C@@H]1CCCN1C(=O)c1cc(O)ccc1-2 = 91.1
C#Cc1ccc2c(c1)C(c1ccccc1F)=N[C@H](C)c1c(C(=O)O)ncn1-2 = 89.0
COc1ccc2c(c1)C(=O)N1CCC[C@H]1c1c(-c3nnn[nH]3)ncn1-2 = 98.3

Given `O=C1c2cc(O)ccc2-n2cnc(-c3cnco3)c2[C@@H]2CCCN12` , state its recorded MLM % remaining after 60 min. 80.0
